Values were extracted from patent US10478425B2.

- system.under.test: Human AMPK α2β2γ1 (Homo sapiens, UniProt O43741+P54646)
- Construct: The full length cDNAs of human AMPK β2 (NM_005399.3) and human AMPK α2 (NM_006252.3); The full length cDNAs of human AMPK β2 (NM_005399.3); the full length cDNA of human AMPK γ1 (NM_002733.3) had been inserted into pET28b(+); 6×His (N); made in house; host or cells: Escherichia coli BL21 CodonPlus (DE3)-RIL
- Sequence (P54646 whole entry): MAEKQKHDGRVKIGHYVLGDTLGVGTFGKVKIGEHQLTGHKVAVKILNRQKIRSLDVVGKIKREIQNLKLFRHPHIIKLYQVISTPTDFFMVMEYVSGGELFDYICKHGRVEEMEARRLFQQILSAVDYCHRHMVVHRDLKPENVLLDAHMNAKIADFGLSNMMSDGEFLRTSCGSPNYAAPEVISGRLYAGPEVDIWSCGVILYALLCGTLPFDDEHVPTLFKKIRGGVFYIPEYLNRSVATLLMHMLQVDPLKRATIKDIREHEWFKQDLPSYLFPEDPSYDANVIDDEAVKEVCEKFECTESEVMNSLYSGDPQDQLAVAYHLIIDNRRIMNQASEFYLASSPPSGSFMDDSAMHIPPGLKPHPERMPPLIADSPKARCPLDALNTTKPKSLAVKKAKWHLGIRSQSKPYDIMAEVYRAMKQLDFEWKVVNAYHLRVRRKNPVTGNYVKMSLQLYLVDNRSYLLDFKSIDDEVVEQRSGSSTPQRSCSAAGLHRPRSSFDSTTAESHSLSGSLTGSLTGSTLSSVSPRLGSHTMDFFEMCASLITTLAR
- Sequence (O43741 whole entry): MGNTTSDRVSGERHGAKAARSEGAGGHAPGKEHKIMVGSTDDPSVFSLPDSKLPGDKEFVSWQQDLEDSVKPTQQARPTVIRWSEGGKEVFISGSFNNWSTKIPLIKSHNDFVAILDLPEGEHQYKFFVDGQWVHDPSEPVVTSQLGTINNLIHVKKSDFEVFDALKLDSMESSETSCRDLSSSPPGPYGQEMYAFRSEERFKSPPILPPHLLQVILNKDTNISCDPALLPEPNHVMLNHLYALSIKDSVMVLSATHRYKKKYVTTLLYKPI
- Sequence (P54619 whole entry partner): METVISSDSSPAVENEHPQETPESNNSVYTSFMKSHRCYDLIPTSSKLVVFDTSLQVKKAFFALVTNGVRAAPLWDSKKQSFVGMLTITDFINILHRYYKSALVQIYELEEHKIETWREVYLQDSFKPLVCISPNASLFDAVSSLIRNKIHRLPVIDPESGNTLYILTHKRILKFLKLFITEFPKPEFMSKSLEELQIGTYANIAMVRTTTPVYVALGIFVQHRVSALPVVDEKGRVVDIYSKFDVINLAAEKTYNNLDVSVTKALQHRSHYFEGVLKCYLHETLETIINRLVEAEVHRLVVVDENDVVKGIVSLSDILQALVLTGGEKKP
- procedure.details: Test Example 2: activation of phosphorylated human AMPK α2β2γ1 (mobility-shift kinase assay, FL-Peptide 7)
- Assay type: biochemical
- stated.conditions: compound concentration showing 150% relative to the control (100%); human AMPK α2β2γ1 phosphorylated with CaMKK2
Kind request: treat 6 nM as inclusive, so EC150 at 6 nM or higher is T, anything lower is F.

{"columns": ["compound", "system.under.test", "group"],
 "data": [
  ["CCP(=O)(CC)c1ccc(-c2ccc(-c3nc4cc(O[C@@H]5CO[C@H](CO)C5)[nH]c4cc3F)cc2)cc1", "Human AMPK α2β2γ1 (Homo sapiens, UniProt O43741+P54646)", "F"],
  ["CNC(=O)c1ccc(-c2ccc(-c3nc4cc(O[C@@H]5CO[C@H]6[C@@H]5OC[C@H]6O)[nH]c4cc3F)cc2)cc1", "Human AMPK α2β2γ1 (Homo sapiens, UniProt O43741+P54646)", "F"],
  ["O[C@@H]1CO[C@H]2[C@@H]1OC[C@H]2Oc1cc2nc(-c3ccc(-c4ccc(OC5CNC5)cc4)cc3)c(F)cc2[nH]1", "Human AMPK α2β2γ1 (Homo sapiens, UniProt O43741+P54646)", "F"],
  ["COC(=O)NC1CCN(c2ccc(-c3nc4cc(O[C@@H]5CO[C@H](CO)C5)[nH]c4cc3F)cc2)CC1", "Human AMPK α2β2γ1 (Homo sapiens, UniProt O43741+P54646)", "T"],
  ["CP(C)(=O)c1ccc(-c2ccc(-c3nc4cc(O[C@@H]5CO[C@H](CO)C5(F)F)[nH]c4cc3F)cc2)cc1", "Human AMPK α2β2γ1 (Homo sapiens, UniProt O43741+P54646)", "F"],
  ["Clc1cc2[nH]c(O[C@H]3CCOC3)cc2nc1-c1ccc(-c2ccc(OC3CCNC3)cc2)cc1 (stereo partly drawn)", "Human AMPK α2β2γ1 (Homo sapiens, UniProt O43741+P54646)", "T"],
  ["COC(=O)N1CCN(c2ccc(-c3nc4cc(O[C@@H]5CO[C@H]6[C@@H]5OC[C@H]6O)[nH]c4cc3F)cc2)CC1", "Human AMPK α2β2γ1 (Homo sapiens, UniProt O43741+P54646)", "T"],
  ["CNC(=O)c1ccc(-c2ccc(-c3nc4cc(O[C@@H]5CO[C@H](CO)C5)[nH]c4cc3F)cc2)cc1", "Human AMPK α2β2γ1 (Homo sapiens, UniProt O43741+P54646)", "F"],
  ["O=C1CCCN1c1ccc(-c2ccc(-c3nc4cc(O[C@@H]5CO[C@H]6[C@@H]5OC[C@H]6O)[nH]c4cc3F)cc2)cc1", "Human AMPK α2β2γ1 (Homo sapiens, UniProt O43741+P54646)", "T"],
  ["CP(C)(=O)c1ccc(-c2ccc(-c3nc4cc(O[C@@H]5CO[C@H]6[C@@H]5OC[C@H]6O)[nH]c4cc3F)cc2)cc1", "Human AMPK α2β2γ1 (Homo sapiens, UniProt O43741+P54646)", "F"],
  ["COc1ccc(-c2ccc(-c3nc4cc(O[C@@H]5CO[C@H]6[C@@H]5OC[C@H]6O)[nH]c4cc3F)cc2)cc1", "Human AMPK α2β2γ1 (Homo sapiens, UniProt O43741+P54646)", "T"],
  ["OC1CCN(c2ccc(-c3ccc(-c4nc5cc(O[C@@H]6CO[C@H]7[C@@H]6OC[C@H]7O)[nH]c5cc4F)cc3)cc2)C1 (stereo partly drawn)", "Human AMPK α2β2γ1 (Homo sapiens, UniProt O43741+P54646)", "F"]
]}
